Test system: CAKI-1
test.name: NCI tumour cell line growth inhibition, 48 h
The source made the active and inactive calls. No stated cut-off is given here; in the data, active = GI50 up to about 1.1 µM and inactive = higher.
Write down the outcome that applies. Available outcomes: active, inactive

Asked: Test call for this molecule, please: `CC1=C(C(=O)NCCc2ccccc2)CC(C(=O)NCCc2ccccc2)=C(C)N1`
Given back: inactive

----------
Test system: UO-31
test.name: NCI tumour cell line growth inhibition, 48 h
Calls of active or inactive are those of the source. Rule as the data show it: active = GI50 up to about 1.1 µM and inactive = higher.
readout.kind: GI50

These recorded examples may help you get a feel for the data.
1) COC(=O)C1(C(=O)OC)N=C(C)OC1c1ccccn1 (stereo not drawn): > 100 µM (inactive)
2) O=C1[C@@H]2C(c3ccccc3[N+](=O)[O-])=[N+](c3ccccc3)O[C@@H]2C(=O)N1c1ccc(Cc2ccc(N3C(=O)[C@H]4C(c5ccccc5[N+](=O)[O-])=[N+](c5ccccc5)O[C@H]4C3=O)cc2)cc1: > 100 µM (inactive)
3) N#Cc1c(NC(=O)C(F)(F)F)sc2c3c(=O)c4ccccc4c(=O)c=3oc3ccccc3c12: 19 µM (inactive)

Asked: # GI50 lookup, item CC(=O)N1CN2C(=O)CCC2c2cc(C)ccc21 (stereo not drawn)
Given back: > 100 µM (inactive)

Asked: # GI50 lookup, item CCN(CC)CCCC(C)Nc1c2ccc(Cl)cc2nc2ccc(OC)cc12 (stereo not drawn)
Given back: 2.08 µM (inactive)

Asked: # GI50 lookup, item CC(=O)Nc1ccc(C(=O)NN2C(=O)C(Cl)C2c2cc(Br)ccc2O)cc1 (stereo not drawn)
Given back: 3.72 µM (inactive)

Asked: # GI50 lookup, item CC(=O)O[C@H](C[C@@H](C)[C@H]1C(=O)[C@H](O)[C@@]2(C)C3CC[C@H]4C(C)(C)[C@@H](OC5OCC(O)C(O)C5O)CC[C@@]45C[C@@]35CC[C@]12C)[C@@H]1OC1(C)C (stereo partly drawn)
Given back: 22.9 µM (inactive)

Asked: # GI50 lookup, item `CC(C)(CNC(=O)/C(Cl)=C(/Cl)C(=O)O)CNC(=O)/C(Cl)=C(/Cl)C(=O)O`
Given back: > 100 µM (inactive)

Asked: # GI50 lookup, item `COc1ccc(/C=C/C(=N/NC(=O)N/N=C(/C=C/c2ccc(OC)cc2)C(C)C)C(C)C)cc1`
Given back: 76.2 µM (inactive)

Asked: # GI50 lookup, item `Sc1nc(S)nc(Oc2ccc(Cl)c(Cl)c2)n1`
Given back: 24.6 µM (inactive)

Asked: # GI50 lookup, item `N#Cc1c(O)nc2nn3c4ccc5ccccc5c4nnc3c2c1-c1ccc(Cl)cc1`
Given back: 2.38 µM (inactive)

----------
Test system: SK-MEL-5
test.name: NCI tumour cell line growth inhibition, 48 h
The source made the active and inactive calls. No stated cut-off is given here; in the data, active = GI50 up to about 1.1 µM and inactive = higher.
readout.kind: GI50

These recorded examples may help you get a feel for the data.
1. COC(=O)C1(F)C(=O)NC(=O)NC1OC (configuration not stated): 9.84 µM (inactive)
2. Sc1nc(S)nc(Oc2ccc(Cl)c(Cl)c2)n1: 24.5 µM (inactive)
3. COc1ccc2c(c1)CCCC(Br)C2=O (configuration not stated): 2.55 µM (inactive)
4. O=C1/C(=C\c2ccc([N+](=O)[O-])cc2)Sc2scc(-c3ccc(O)c(O)c3)[n+]21: 3.87 µM (inactive)
5. CC(C)Cc1ccc(C(C)C(=O)N2CCN(/C=C/c3ccccc3)CC2)cc1 (configuration not stated): 12.1 µM (inactive)

Asked: # GI50 lookup, item `O=NN1CCCS1(=O)=O`
Given back: > 100 µM (inactive)

Asked: # GI50 lookup, item `O=c1cccccc1NCCCCCCNc1cccccc1=O`
Given back: > 100 µM (inactive)

Asked: # GI50 lookup, item `Cc1ccc(S(=O)(=O)NC(=O)N[C@@H](Cc2c[nH]cn2)C(=O)O)cc1`
Given back: > 100 µM (inactive)

Asked: # GI50 lookup, item `O=C(/C=C1\Nc2ccccc2N\C1=C/C(=O)c1ccc(F)cc1)c1ccc(F)cc1`
Given back: > 100 µM (inactive)

Asked: # GI50 lookup, item O=C1C2Nc3ccccc3SC2C(=O)N1c1ccccc1C(F)(F)F (configuration not stated)
Given back: 12 µM (inactive)

Asked: # GI50 lookup, item COC1=CC2(C=CC1=O)c1cc(OC)c(OC)cc1CCN2C(=O)c1ccccc1 (configuration not stated)
Given back: > 100 µM (inactive)

Asked: # GI50 lookup, item `CC(C)[Si](OC1=C(C(=O)N(C)c2ccccc2Cl)CCCC1)(C(C)C)C(C)C`
Given back: 13.8 µM (inactive)

----------
Tested on: U-251
test.name: NCI tumour cell line growth inhibition, 48 h
Calls of active or inactive are those of the source. No stated cut-off is given here; in the data, active = GI50 up to about 1.1 µM and inactive = higher.
readout.kind: GI50

These recorded examples may help you get a feel for the data.
1. COc1cc2ccc(C(=O)NCCCNC(=O)c3ccc4cc(OC)c(OC)cc4c3)cc2cc1OC: > 100 µM (inactive)
2. N#Cc1c(-c2ccccc2)[nH]c2ccc(Cl)cc2c1=O: 28.2 µM (inactive)
3. Cc1nc2ccccc2n1Cc1ccc(NC(=S)Nc2ccccc2)cc1: 82.6 µM (inactive)
4. N=C(N)N/N=C(/c1nc2ccc([N+](=O)[O-])cc2[nH]c1=O)C(O)c1ccc([N+](=O)[O-])cc1 (stereo not given): 67.3 µM (inactive)

Asked: # GI50 lookup, item COc1ccc2c(c1)CCCC(Br)C2=O (stereo not given)
Given back: 4.72 µM (inactive)

Asked: # GI50 lookup, item `Nc1ccc(Oc2ccc(C3(c4ccc(Oc5ccc(N)cc5)cc4)C4CC5CC(C4)CC3C5)cc2)cc1`
Given back: 0.231 µM (active)

Asked: # GI50 lookup, item CC(=O)C(C(=N)C#N)C(=O)Nc1ccccc1 (stereo not given)
Given back: > 100 µM (inactive)

----------
Test system: DU-145
test.name: NCI tumour cell line growth inhibition, 48 h
Activity calls are given as the source filed them. Rule as the data show it: active = GI50 up to about 1.1 µM and inactive = higher.
Write down the outcome that applies. Available outcomes: active, inactive

1. O=c1[nH]c(=O)n2n1C1C=CC2CC1: inactive

Asked: Test call for this compound, please: Cc1ccc(C2c3c(n(C)c(=O)n(C)c3=O)OC(N(C)C)(N(C)C)C2(F)F)cc1 (stereo unspecified)
Given back: inactive

Asked: Test call for this compound, please: `O=S(=O)(O)c1ccc(NN(c2c(O)ccc3ccccc23)S(=O)(=O)O)cc1`
Given back: inactive

Asked: Test call for this compound, please: `N#Cc1c(NC(=O)C(F)(F)F)sc2c3c(=O)c4ccccc4c(=O)c=3oc3ccccc3c12`
Given back: inactive

Asked: Test call for this compound, please: C=C(C)C1CC2=C(C(=O)OC)C=C(O2)C(C(=C)C)[C@@H]2OC(=O)/C(=C\C1O)[C@H]2N(C)C (stereo partly specified)
Given back: inactive

Asked: Test call for this compound, please: Cc1nnc(N)nc1C/C=C/C(Sc1ccc(Cl)cc1)c1ccccc1 (stereo unspecified)
Given back: inactive

----------
System: SR
test.name: NCI tumour cell line growth inhibition, 48 h
Active and inactive are the calls of the source. Rule as the data show it: active = GI50 up to about 1.1 µM and inactive = higher.
Write down the outcome that applies. Available outcomes: 1 for active, -1 for inactive

Solved entries (count: 3):
1) CSc1nc(NC(C)C)c2c(n1)Sc1nc3ccccc3n1C2O (stereo unspecified): -1
2) COc1cccc(C2c3cc4c(cc3OC(C)(O)C2C)OCO4)c1O (stereo unspecified): -1
3) N#Cc1ccc(C(=O)/C=C/c2ccc(O)c(O)c2)cc1: -1

Asked: Test call for this compound, please: `O=c1[nH]nc(Cc2ccc(Cl)cc2)n1/N=C/c1c[nH]c2ccccc12`
Given back: -1

Asked: Test call for this compound, please: `O=S(=O)(Nc1ccc2ccc3cccc4ccc1c2c34)c1ccccc1`
Given back: -1

Asked: Test call for this compound, please: `Cc1ccc2nc(-c3ccccc3)cc(=O)n2c1`
Given back: -1

Asked: Test call for this compound, please: O=c1cc(CO)oc(C(O)c2ccccc2)c1O (stereo unspecified)
Given back: -1

Asked: Test call for this compound, please: `Sc1nc(S)nc(Oc2ccc(Cl)c(Cl)c2)n1`
Given back: -1

Asked: Test call for this compound, please: `O=C(O)C12CC3(C(=O)O)CC(C(=O)O)(CC(C(=O)O)(C1)C3=O)C2=O`
Given back: -1

Asked: Test call for this compound, please: `O=C(OC12CC3CC(CC(C3)C1)C2)c1ccc(NCc2cc(O)ccc2O)cc1`
Given back: 1

Asked: Test call for this compound, please: `CCOC(=O)c1cc2cc3c4c(c2oc1=O)CCCN4CCC3`
Given back: -1

----------
Tested on: U-251
test.name: NCI tumour cell line growth inhibition, 48 h
Active and inactive are the calls of the source. No stated cut-off is given here; in the data, active = GI50 up to about 1.1 µM and inactive = higher.
Write down the outcome that applies. Available outcomes: label 1 = active, label 0 = inactive

Asked: Test call for this compound, please: Cc1nnc(N)nc1C/C=C/C(Sc1ccc(Cl)cc1)c1ccccc1 (stereo unspecified)
Given back: label 0

Asked: Test call for this compound, please: `Cc1ccc(C)c(COCCOCn2c(=O)[nH]c(=O)c3cc(Br)ccc32)c1`
Given back: label 0

Asked: Test call for this compound, please: COC1(Cc2ccccc2)C(=O)c2ccccc2N1C(C)=O (stereo unspecified)
Given back: label 0

Asked: Test call for this compound, please: `O=c1oc2ccc3ccccc3c2cc1-c1nnc(Nc2ccccc2)s1`
Given back: label 0

Asked: Test call for this compound, please: `NC(=S)N/N=C\c1ccc(OCc2cccc(COc3ccc(/C=N/NC(N)=S)cc3)n2)cc1`
Given back: label 0

Asked: Test call for this compound, please: C=CCc1cc(C(Cc2ccccc2)NC(C)C)cc(OCc2ccccc2)c1OCc1ccccc1 (stereo unspecified)
Given back: label 0
